- Experimental Details: antimalarial activity against Dd2 strain (AID 2302);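 note: 0% = DMSO untreated growth and 100% = chloroquine plus artemisinin killed control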
- Measurement Conditions: P. falciparum Dd2 in RBCs, LDH growth readout, 72 h; at 2 µM; stronger effect = higher value
Calls of active or inactive are those of the source.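 Rule for the calls: active = growth inhibition above 50% at the single 2 µM test dose, taken to imply half-maximal potency below 2 µM; inactive = the rest.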
Attribute Measured: growth inhibition

| Compound | Result |
| --- | --- |
| CN1CCN(Cc2ccc(-c3ccc4c(Nc5ccc(Cl)cc5F)ccnc4c3)o2)CC1 | 100% (active) |
| CC(C)c1ccc(C(NC(=O)C2CCCCC2)c2ccc3cccnc3c2O)cc1 (stereo not given) | 70% (active) |
| Cc1c(C(C)(C)C)ccc2nc(N)nc(N)c12 | -2% (inactive) |
| O=C(/C=C/c1ccccc1O)N1CCC(CCN2CCC(c3c[nH]c4ccccc34)CC2)CC1 | 15% (inactive) |
| Oc1cc2c(cc1CN1CCN(Cc3ccc(Cl)s3)CC1)CCC2 | 76% (active) |
| O=C(NCCN1CCCCC1)c1cccc(Nc2nccc(Nc3ccc(Oc4ccccc4)cc3)n2)c1 | 86% (active) |
| O=C(NCCCNc1ccnc2cc(Cl)ccc12)c1ccccc1F | 97% (active) |
| CCCCN1CCCC[C@H]1[C@@H](O)c1ccnc2ccc(OCC)cc12 | 88% (active) |
| COc1ccc2ncc(F)c(CCN3CCC(NCc4ccc5c(c4)CCO5)CC3)c2n1 | 30% (inactive) |
| Cc1nc2ccc(S(=O)(=O)Nc3ccc(C(=O)N[C@@H](CCC(=O)O)C(=O)O)cc3)cc2c(=O)[nH]1 | 2% (inactive) |
